System under test: USP10 (UniProt Q14694)
Sequence (Q14694 whole entry, the tested form may be a part): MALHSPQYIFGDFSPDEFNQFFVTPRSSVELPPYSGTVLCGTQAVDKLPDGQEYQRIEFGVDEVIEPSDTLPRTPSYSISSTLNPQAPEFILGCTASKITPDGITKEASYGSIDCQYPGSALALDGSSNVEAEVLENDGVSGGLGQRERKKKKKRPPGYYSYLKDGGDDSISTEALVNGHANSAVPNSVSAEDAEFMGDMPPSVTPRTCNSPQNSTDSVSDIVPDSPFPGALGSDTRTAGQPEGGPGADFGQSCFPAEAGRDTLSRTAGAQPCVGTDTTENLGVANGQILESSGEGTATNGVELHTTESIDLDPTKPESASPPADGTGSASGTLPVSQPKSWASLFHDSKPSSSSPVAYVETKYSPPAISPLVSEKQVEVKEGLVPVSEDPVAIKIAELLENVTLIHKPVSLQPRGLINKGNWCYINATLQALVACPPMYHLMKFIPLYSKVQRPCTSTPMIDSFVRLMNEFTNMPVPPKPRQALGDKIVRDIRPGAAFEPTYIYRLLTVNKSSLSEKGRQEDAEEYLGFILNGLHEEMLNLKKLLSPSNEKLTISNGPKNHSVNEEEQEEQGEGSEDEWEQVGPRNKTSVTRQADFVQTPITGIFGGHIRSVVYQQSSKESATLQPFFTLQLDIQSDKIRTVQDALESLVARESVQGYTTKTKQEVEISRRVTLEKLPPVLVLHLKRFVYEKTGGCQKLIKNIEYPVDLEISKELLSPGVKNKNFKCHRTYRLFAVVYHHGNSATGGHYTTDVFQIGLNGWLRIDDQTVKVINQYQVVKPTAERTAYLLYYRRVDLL
Procedure text: log2 ratio of Biotin-Ahx-Ub-VS probe labelling (fragment/DMSO); higher = less target engagement (more negative = stronger competition), active = hit call of the paper (q ≤ 0.05, log2 ratio ≤ -1)
Run conditions: compound concentration: 200 uM; treatment time: 3 h
Recorded metric: log2 ratio of Biotin-Ahx-Ub-VS probe labelling
Output: the number by itself.

# annotated cases, reported log2 ratio of Biotin-Ahx-Ub-VS probe labelling shown
> print(dat)
                                   compound  readout.value
1  CC(NC(=O)CCl)c1ccc2[nH]ncc2c1 (centres undefined)         -0.179
2  CC(NC(=O)CCl)c1cc2n(n1)CCCC2.Cl (centres undefined)         -0.153
3             O=C(CCl)N1CCC(OCc2ccccc2F)CC1         -0.192
4  CC(NC(=O)CCl)c1cccc(Cl)c1 (centres undefined)         -0.136
5  O=C(CCl)NC1CCCCNC1=O (centres undefined)         -0.269

Query string: What value of log2 ratio of Biotin-Ahx-Ub-VS probe labelling has been recorded for this entry: CC(O)CC1CCN(C(=O)CCl)CC1 (centres undefined)
Result string: -0.0376

Query string: Same question for CC(NC(=O)CCl)c1csc(-c2ccccc2)n1.Cl (centres undefined) please.
Result string: -0.126

Query string: Same question for O=C(CCl)Nc1ccc(N2CCCC2=O)cc1 please.
Result string: -0.0139

Query string: Same question for Cl.Cn1c(CNC(=O)CCl)nc2cccnc21 please.
Result string: -0.0558

Query string: Same question for Cl.O=C(CCl)N[C@H]1C[C@@H](n2cccn2)C1 please.
Result string: 0.0484

Query string: Same question for CC1Cc2ccccc2N1C(=O)CCl (centres undefined) please.
Result string: -0.242

Query string: Same question for Cc1ncsc1CCNC(=O)CCl please.
Result string: 0.0995

Query string: Same question for O=C(CCl)N1CCc2[nH]c3ccccc3c2C1 please.
Result string: -0.119

Query string: Same question for NS(=O)(=O)c1ccc(Cl)c(NC(=O)CCl)c1 please.
Result string: -0.299

Query string: Same question for CN1c2ccccc2C(NC(=O)CCl)CS1(=O)=O (centres undefined) please.
Result string: 0.128

Query string: Same question for Cl.O=C(CCl)N1CCCC(c2ncc[nH]2)C1 (centres undefined) please.
Result string: -0.028

Query string: Same question for CC(=O)C1CCCCN1C(=O)CCl (centres undefined) please.
Result string: -0.0595

Query string: Same question for O=C(CCl)Nc1ccccc1C(F)(F)F please.
Result string: -0.0659

Query string: Same question for O=C(CCl)NCc1cccc(N2CCCC2=O)c1 please.
Result string: 0.0755

###

System under test: UniProt Q9P2H5
Sequence (Q9P2H5 whole entry, the tested form may be a part): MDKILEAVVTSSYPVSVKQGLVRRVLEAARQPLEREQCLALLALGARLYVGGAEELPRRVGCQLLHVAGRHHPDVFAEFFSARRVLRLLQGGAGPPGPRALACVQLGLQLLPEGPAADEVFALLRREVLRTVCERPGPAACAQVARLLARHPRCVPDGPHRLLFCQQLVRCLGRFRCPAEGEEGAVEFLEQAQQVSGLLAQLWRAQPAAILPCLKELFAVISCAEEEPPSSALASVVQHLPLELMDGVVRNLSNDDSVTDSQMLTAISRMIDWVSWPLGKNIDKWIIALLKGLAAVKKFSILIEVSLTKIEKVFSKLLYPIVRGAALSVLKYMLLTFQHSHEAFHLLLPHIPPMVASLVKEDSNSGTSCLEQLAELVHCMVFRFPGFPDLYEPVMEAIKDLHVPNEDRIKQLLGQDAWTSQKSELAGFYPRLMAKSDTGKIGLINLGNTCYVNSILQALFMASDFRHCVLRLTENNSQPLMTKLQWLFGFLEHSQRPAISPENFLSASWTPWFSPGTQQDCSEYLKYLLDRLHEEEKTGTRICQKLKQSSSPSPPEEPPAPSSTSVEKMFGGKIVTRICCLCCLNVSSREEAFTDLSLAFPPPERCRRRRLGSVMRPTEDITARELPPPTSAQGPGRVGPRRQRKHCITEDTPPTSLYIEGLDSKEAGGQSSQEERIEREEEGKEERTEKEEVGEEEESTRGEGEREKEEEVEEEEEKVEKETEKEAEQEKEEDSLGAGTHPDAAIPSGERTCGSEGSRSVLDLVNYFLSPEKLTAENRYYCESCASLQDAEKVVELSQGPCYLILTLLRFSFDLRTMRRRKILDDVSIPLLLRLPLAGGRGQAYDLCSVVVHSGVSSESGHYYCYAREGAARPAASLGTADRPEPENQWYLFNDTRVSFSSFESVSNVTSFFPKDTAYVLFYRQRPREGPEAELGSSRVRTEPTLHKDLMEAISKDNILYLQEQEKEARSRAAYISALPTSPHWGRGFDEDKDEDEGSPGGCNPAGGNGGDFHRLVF
Procedure text: log2 ratio of Biotin-Ahx-Ub-VS probe labelling (fragment/DMSO); higher = less target engagement (more negative = stronger competition), active = hit call of the paper (q ≤ 0.05, log2 ratio ≤ -1)
Run conditions: compound concentration: 200 uM; treatment time: 3 h
Recorded metric: log2 ratio of Biotin-Ahx-Ub-VS probe labelling
Output: the number by itself.

> print(dat)
                                   molecule  system.under.test  readout.value
1  Cc1cc(C2CCCN2C(=O)CCl)nn1C.Cl (configuration not stated)     UniProt Q9P2H5         -0.247
2             Cc1ccccc1C1(CNC(=O)CCl)CCOCC1     UniProt Q9P2H5         -0.221
3                CNC(=O)Cn1cc(NC(=O)CCl)cn1     UniProt Q9P2H5         -0.256

Query string: What value of log2 ratio of Biotin-Ahx-Ub-VS probe labelling has been recorded for this entry: O=C(CCl)NCCc1ccc(F)cc1
Result string: 0.297

Query string: Same question for O=C(CN1CCN(C(=O)CCl)CC1)Nc1cccc(F)c1 please.
Result string: -0.486

Query string: Same question for CC(=O)Nc1ccc(NC(=O)CCl)cc1 please.
Result string: -0.0361

Query string: Same question for Cc1ccc(CN(C)C(=O)CCl)o1 please.
Result string: -0.321

Query string: Same question for Cl.O=C(CCl)NC1(c2ncccn2)CCC1 please.
Result string: -0.0207

Query string: Same question for Cc1ccc(CNC(=O)CCl)nc1C.Cl please.
Result string: 0.102

Query string: Same question for O=C(CCl)NC1CCN(C(=O)C2CCCCC2)CC1 please.
Result string: 0.125

Query string: Same question for Cc1cnc2[nH]cc(CCNC(=O)CCl)c2c1 please.
Result string: 0.0093

Query string: Same question for NC(=O)C(Cc1ccccc1)NC(=O)CCl (configuration not stated) please.
Result string: -0.193

Query string: Same question for Cl.Cn1ncc2c1CC(NC(=O)CCl)CC2 (configuration not stated) please.
Result string: -0.257

Query string: Same question for Cc1ccc(C)c(Oc2ccc(CNC(=O)CCl)cn2)c1.Cl please.
Result string: -0.375

Query string: Same question for Cc1cccc(C(CNC(=O)CCl)N2CCOCC2)c1.Cl (configuration not stated) please.
Result string: -0.237

Query string: Same question for O=C(CCl)N1CCOC(c2cccc(F)c2)C1 (configuration not stated) please.
Result string: -0.416

Query string: Same question for O=C(CCl)Nc1ccc(N2CCCC2=O)cc1 please.
Result string: 0.00543

Query string: Same question for CC(NC(=O)CCl)c1csc(-c2ccccc2)n1.Cl (configuration not stated) please.
Result string: -0.482

Query string: Same question for O=C(CCl)NCc1ccc2c(c1)OCO2 please.
Result string: -0.288

Query string: Same question for N#Cc1ccccc1N1CCN(C(=O)CCl)CC1 please.
Result string: -0.617

Query string: Same question for O=C(CCl)NC1CCC(C(F)(F)F)CC1 (configuration not stated) please.
Result string: 0.159

Query string: Same question for COc1ccc(C2CCCN2C(=O)CCl)c(OC)c1 (configuration not stated) please.
Result string: -0.249

###

System under test: COPS5 (UniProt Q92905)
Sequence (Q92905 whole entry, looked up, the tested form may be a part): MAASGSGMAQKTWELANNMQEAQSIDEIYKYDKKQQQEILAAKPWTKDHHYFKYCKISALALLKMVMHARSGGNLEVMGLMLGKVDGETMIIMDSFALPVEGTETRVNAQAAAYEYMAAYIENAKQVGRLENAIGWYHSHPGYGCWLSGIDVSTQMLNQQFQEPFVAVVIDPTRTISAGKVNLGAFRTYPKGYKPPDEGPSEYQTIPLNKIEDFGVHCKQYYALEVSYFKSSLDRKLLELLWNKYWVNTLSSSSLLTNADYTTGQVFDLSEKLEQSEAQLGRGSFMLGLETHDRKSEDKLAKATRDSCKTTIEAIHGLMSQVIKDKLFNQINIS
Procedure text: log2 ratio of Biotin-Ahx-Ub-VS probe labelling (fragment/DMSO); higher = less target engagement (more negative = stronger competition), active = hit call of the paper (q ≤ 0.05, log2 ratio ≤ -1)
Run conditions: compound concentration: 200 uM; treatment time: 3 h
Recorded metric: log2 ratio of Biotin-Ahx-Ub-VS probe labelling
Output: the number by itself.

# annotated cases, reported log2 ratio of Biotin-Ahx-Ub-VS probe labelling shown
> print(dat)
                                   molecule       system.under.test  readout.value
1            O=C(CCl)Nc1ccc2c(c1)OC(F)(F)O2  COPS5 (UniProt Q92905)         -0.156
2                  O=C(CCl)N1CCC(=C(F)CO)C1  COPS5 (UniProt Q92905)         -0.253
3              O=C(CCl)N1CCC2(CCC(O)CC2)CC1  COPS5 (UniProt Q92905)          0.318
4  Cl.O=C(CCl)N1CCC(Cc2nccs2)C1 (stereo not given)  COPS5 (UniProt Q92905)          0.114
5  CC1(NC(=O)CCl)CCS(=O)(=O)C1 (stereo not given)  COPS5 (UniProt Q92905)         0.0148
6             Cl.Cn1cnc2cc(CNC(=O)CCl)ccc21  COPS5 (UniProt Q92905)         -0.125
7  COc1ccccc1C(C)NC(=O)CCl (stereo not given)  COPS5 (UniProt Q92905)          0.247
8  Cc1ccc(CC(CO)CNC(=O)CCl)cc1 (stereo not given)  COPS5 (UniProt Q92905)         0.0248
9       O=C(CCl)N[C@H]1CCS(=O)(=O)c2ccccc21  COPS5 (UniProt Q92905)        -0.0992

Turning now to a further molecule:
Query string: What value of log2 ratio of Biotin-Ahx-Ub-VS probe labelling has been recorded for this entry: Cc1ccc(CN(CCO)C(=O)CCl)cc1
Result string: -0.141

Cited source: the supplement of paper PMC11732987
